These entries and their values trace back to the NIST ThermoML archive (doi:10.1021/acs.jced.5b00978).

# Condition Parameters: Crystal; DTA

# Molecule, Value Units, Normal melting temperature
measured = [
    ("COC(=O)c1ccc(C#N)cc1 [methyl p-cyanobenzoate]", "°C", 65.1),
    ("COC(=O)c1ccc(C=O)cc1 [methyl 4-formylbenzoate]", "°C", 62.1),
    ("COC(=O)c1ccc([N+](=O)[O-])cc1 [methyl p-nitrobenzoate]", "°C", 96.2),
    ("CNc1ccc(C(=O)OC)cc1 [methyl p-(methylamino)benzoate]", "°C", 93),
]

----------
# Test Name: Molar enthalpy of transition or fusion
# Condition Parameters: Crystal; DSC

# Molecule, Molar enthalpy of transition or fusion
rows = [
    ("COC(=O)c1ccc(C#N)cc1 [methyl p-cyanobenzoate]", "5.21 kcal/mol"),
    ("COC(=O)c1ccc([N+](=O)[O-])cc1 [methyl p-nitrobenzoate]", "5.83 kcal/mol"),
    ("CNc1ccc(C(=O)OC)cc1 [methyl p-(methylamino)benzoate]", "6.57 kcal/mol"),
    ("COC(=O)c1ccc(C=O)cc1 [methyl 4-formylbenzoate]", "5.11 kcal/mol"),
]
